- procedure text: Cmax in healthy human at 200 mg, iv on day 1 as 200 mins infusion followed by maintenance dose of 100 mg every 24 hrs on days 2 and 3 as 100 mins infusions
- Format: ADME, organism-based
- Design: dose 200 mg, route intravenous
- condition info: in vivo
Numbered stars: 1 amine (or outer) side, 2 acyl side, 3 side chain; on linkers, the order of the positions; unused ones are H or OH. Bridge positions count the residues as written; N and C are the ends. Square brackets hold non-standard residues; d marks the D form. Peptide text beside a SMILES is read from it. * marks the point of attachment. pTerphenylCO(4''-OnC5H11) = CCCCCOc1ccc(-c2ccc(-c3ccc(C(=O)*)cc3)cc2)cc1; Orn(4R-OH,5R-OH) = O=C([C@H](C[C@@H](O)[C@@H](O)N[*:3])N[*:1])[*:2]; hTyr(3S-OH,4S-OH) = N[C@H](C(=O)O)[C@H](O)[C@@H](O)c1ccc(O)cc1; Pro(3S-OH,4S-Me) = C[C@H]1CN[C@H](C(=O)O)[C@H]1O; Hyp = O=C(O)[C@@H]1C[C@@H](O)CN1

compound: CCCCCOc1ccc(-c2ccc(-c3ccc(C(=O)N[C@H]4C[C@@H](O)[C@@H](O)NC(=O)[C@@H]5[C@@H](O)[C@@H](C)CN5C(=O)[C@H]([C@@H](C)O)NC(=O)[C@H]([C@H](O)[C@@H](O)c5ccc(O)cc5)NC(=O)[C@@H]5C[C@@H](O)CN5C(=O)[C@H]([C@@H](C)O)NC4=O)cc3)cc2)cc1 [ANIDULAFUNGIN] ({pTerphenylCO(4''-OnC5H11)}-[Orn(4R-OH,5R-OH)]T[Hyp][hTyr(3S-OH,4S-OH)]T[Pro(3S-OH,4S-Me)]; lactam 1-C)
Cmax, ng/mL: 6600

----------
- procedure text: Drug level healthy human alveolar macrophage at 200 mg, iv on day 1 as 200 mins infusion followed by maintenance dose of 100 mg every 24 hrs on days 2 and 3 as 100 mins infusions after 4 hrs of last dose
- Type: ADME, organism-based
- condition info: alveolar macrophages, read-out: Drug uptake
Numbered stars: 1 amine (or outer) side, 2 acyl side, 3 side chain; on linkers, the order of the positions; unused ones are H or OH. Bridge positions count the residues as written; N and C are the ends. Square brackets hold non-standard residues; d marks the D form. Peptide text beside a SMILES is read from it. * marks the point of attachment. pTerphenylCO(4''-OnC5H11) = CCCCCOc1ccc(-c2ccc(-c3ccc(C(=O)*)cc3)cc2)cc1; Orn(4R-OH,5R-OH) = O=C([C@H](C[C@@H](O)[C@@H](O)N[*:3])N[*:1])[*:2]; hTyr(3S-OH,4S-OH) = N[C@H](C(=O)O)[C@H](O)[C@@H](O)c1ccc(O)cc1; Pro(3S-OH,4S-Me) = C[C@H]1CN[C@H](C(=O)O)[C@H]1O; Hyp = O=C(O)[C@@H]1C[C@@H](O)CN1
reported metric: concentration at 4 h (ng/mL)

molecule: CCCCCOc1ccc(-c2ccc(-c3ccc(C(=O)N[C@H]4C[C@@H](O)[C@@H](O)NC(=O)[C@@H]5[C@@H](O)[C@@H](C)CN5C(=O)[C@H]([C@@H](C)O)NC(=O)[C@H]([C@H](O)[C@@H](O)c5ccc(O)cc5)NC(=O)[C@@H]5C[C@@H](O)CN5C(=O)[C@H]([C@@H](C)O)NC4=O)cc3)cc2)cc1 [ANIDULAFUNGIN] ({pTerphenylCO(4''-OnC5H11)}-[Orn(4R-OH,5R-OH)]T[Hyp][hTyr(3S-OH,4S-OH)]T[Pro(3S-OH,4S-Me)]; lactam 1-C)
reported metric: concentration at 4 h
observed measurement: 44600

----------
- procedure text: Drug level healthy human plasma at 200 mg, iv on day 1 as 200 mins infusion followed by maintenance dose of 100 mg every 24 hrs on days 2 and 3 as 100 mins infusions after 8 hrs of last dose
- Type: ADME, organism-based
- condition info: read-out: Drug uptake
Numbered stars: 1 amine (or outer) side, 2 acyl side, 3 side chain; on linkers, the order of the positions; unused ones are H or OH. Bridge positions count the residues as written; N and C are the ends. Square brackets hold non-standard residues; d marks the D form. Peptide text beside a SMILES is read from it. * marks the point of attachment. pTerphenylCO(4''-OnC5H11) = CCCCCOc1ccc(-c2ccc(-c3ccc(C(=O)*)cc3)cc2)cc1; Orn(4R-OH,5R-OH) = O=C([C@H](C[C@@H](O)[C@@H](O)N[*:3])N[*:1])[*:2]; hTyr(3S-OH,4S-OH) = N[C@H](C(=O)O)[C@H](O)[C@@H](O)c1ccc(O)cc1; Pro(3S-OH,4S-Me) = C[C@H]1CN[C@H](C(=O)O)[C@H]1O; Hyp = O=C(O)[C@@H]1C[C@@H](O)CN1

compound: CCCCCOc1ccc(-c2ccc(-c3ccc(C(=O)N[C@H]4C[C@@H](O)[C@@H](O)NC(=O)[C@@H]5[C@@H](O)[C@@H](C)CN5C(=O)[C@H]([C@@H](C)O)NC(=O)[C@H]([C@H](O)[C@@H](O)c5ccc(O)cc5)NC(=O)[C@@H]5C[C@@H](O)CN5C(=O)[C@H]([C@@H](C)O)NC4=O)cc3)cc2)cc1 [ANIDULAFUNGIN] ({pTerphenylCO(4''-OnC5H11)}-[Orn(4R-OH,5R-OH)]T[Hyp][hTyr(3S-OH,4S-OH)]T[Pro(3S-OH,4S-Me)]; lactam 1-C)
units: ng/mL
concentration at 8 h: 5100

----------
- procedure text: Volume of distribution at steady state in healthy human at 6 mg/kg, iv for every 12 hrs on day 1 as 120 mins infusions followed by maintenance dose of 4 mg/kg every 12 hrs on day 2 and single 4 mg/kg dose on day 3 as 100 mins infusions
- Format: ADME, organism-based
- condition info: in vivo, read-out: Vdss
reported metric: Vd (L)

compound: C[C@@H](c1ncncc1F)[C@](O)(Cn1cncn1)c1ccc(F)cc1F [VORICONAZOLE]
reported metric: Vd
units: L
observed measurement: 110

----------
- procedure text: Drug level healthy human epithelial lining fluid at 200 mg, iv on day 1 as 200 mins infusion followed by maintenance dose of 100 mg every 24 hrs on days 2 and 3 as 100 mins infusions after 4 hrs of last dose
- Type: ADME, organism-based
- condition info: read-out: Drug uptake
Numbered stars: 1 amine (or outer) side, 2 acyl side, 3 side chain; on linkers, the order of the positions; unused ones are H or OH. Bridge positions count the residues as written; N and C are the ends. Square brackets hold non-standard residues; d marks the D form. Peptide text beside a SMILES is read from it. * marks the point of attachment. pTerphenylCO(4''-OnC5H11) = CCCCCOc1ccc(-c2ccc(-c3ccc(C(=O)*)cc3)cc2)cc1; Orn(4R-OH,5R-OH) = O=C([C@H](C[C@@H](O)[C@@H](O)N[*:3])N[*:1])[*:2]; hTyr(3S-OH,4S-OH) = N[C@H](C(=O)O)[C@H](O)[C@@H](O)c1ccc(O)cc1; Pro(3S-OH,4S-Me) = C[C@H]1CN[C@H](C(=O)O)[C@H]1O; Hyp = O=C(O)[C@@H]1C[C@@H](O)CN1
reported metric: concentration at 4 h

compound: CCCCCOc1ccc(-c2ccc(-c3ccc(C(=O)N[C@H]4C[C@@H](O)[C@@H](O)NC(=O)[C@@H]5[C@@H](O)[C@@H](C)CN5C(=O)[C@H]([C@@H](C)O)NC(=O)[C@H]([C@H](O)[C@@H](O)c5ccc(O)cc5)NC(=O)[C@@H]5C[C@@H](O)CN5C(=O)[C@H]([C@@H](C)O)NC4=O)cc3)cc2)cc1 [ANIDULAFUNGIN] ({pTerphenylCO(4''-OnC5H11)}-[Orn(4R-OH,5R-OH)]T[Hyp][hTyr(3S-OH,4S-OH)]T[Pro(3S-OH,4S-Me)]; lactam 1-C)
reported metric: concentration at 4 h
observed measurement: 0.9 µg/mL

----------
- procedure text: Drug level healthy human plasma at 200 mg, iv on day 1 as 200 mins infusion followed by maintenance dose of 100 mg every 24 hrs on days 2 and 3 as 100 mins infusions after 24 hrs of last dose
- Assay type: ADME, organism-based
- condition info: read-out: Drug uptake
Numbered stars: 1 amine (or outer) side, 2 acyl side, 3 side chain; on linkers, the order of the positions; unused ones are H or OH. Bridge positions count the residues as written; N and C are the ends. Square brackets hold non-standard residues; d marks the D form. Peptide text beside a SMILES is read from it. * marks the point of attachment. pTerphenylCO(4''-OnC5H11) = CCCCCOc1ccc(-c2ccc(-c3ccc(C(=O)*)cc3)cc2)cc1; Orn(4R-OH,5R-OH) = O=C([C@H](C[C@@H](O)[C@@H](O)N[*:3])N[*:1])[*:2]; hTyr(3S-OH,4S-OH) = N[C@H](C(=O)O)[C@H](O)[C@@H](O)c1ccc(O)cc1; Pro(3S-OH,4S-Me) = C[C@H]1CN[C@H](C(=O)O)[C@H]1O; Hyp = O=C(O)[C@@H]1C[C@@H](O)CN1

molecule: CCCCCOc1ccc(-c2ccc(-c3ccc(C(=O)N[C@H]4C[C@@H](O)[C@@H](O)NC(=O)[C@@H]5[C@@H](O)[C@@H](C)CN5C(=O)[C@H]([C@@H](C)O)NC(=O)[C@H]([C@H](O)[C@@H](O)c5ccc(O)cc5)NC(=O)[C@@H]5C[C@@H](O)CN5C(=O)[C@H]([C@@H](C)O)NC4=O)cc3)cc2)cc1 [ANIDULAFUNGIN] ({pTerphenylCO(4''-OnC5H11)}-[Orn(4R-OH,5R-OH)]T[Hyp][hTyr(3S-OH,4S-OH)]T[Pro(3S-OH,4S-Me)]; lactam 1-C)
concentration at 24 h / ng/mL: 3000

Entry source: ChEMBL document CHEMBL1649284
